- Test Description: yeast display, Sf9 membrane polyspecificity reagent, FACS + sequencing; frameworks hold sequencing errors
Readout Name: polyreactivity (PSR sort gate)

• QVQLVESGGGLVQAGGSLRLSCAASGFIFQYYAMGWYRQAPGKERELVAAITPSGTSTYYADSVKGRFTISRDNAKNTVYLQMNSLKPEDTAVYYCAAYYRYASDYWGQGTQVTVSS = low polyreactivity
• PVQLVESGGGLVQAGGSLPLSCAASGRTFPFNAMRWYRQAPGKERELVATINYRGGSTYYADSVKGRFTISRDNAKNTVYLQMNSLKPEDTAVYYCAAGKIGRYHYDYWGQGTQVTVSS = high polyreactivity
• QVQLVESCGGLVQAGGSLRLSCAASGRTFRDNAMGWYRQAPGKERELVAAIDIDSSTYYADSVEGRFTISRDNAKNTVYLQMNSLKPEDTAVYYCAAESYHDGKGFPDYEYWGQGTQVTVSS = low polyreactivity
• QVQLVESGGGLVQAGGSLRLTCPASGTIFWNYAMGWYRQAPGKERELVAAISFSGGSTYYADSVKGRFTISRDNAKNTVYLQMNSLKPEDTAVYYCNADYSYVGEYDYWGQGTQVTLSS = low polyreactivity
• QVQLVESGGGLDQAGGSLRLSCAASGSTFWGYTMGWYRQAPGKERELVAAITSGGSTNYADSVKGRFTISRDNAKNTVYLQMYSLKPEDTAVYYCNAVYPGRRRYRKWYIYDYWGQGTQVTVSS = high polyreactivity
• QVQLVESGGGLVQAGGTLRVSCAASGLIFYGNVMGWYRQAPGKERELVAGISRNSGSTYYADSVKGRFTISRDNANNTVYLQMNSLKPEDTAVYYCAALKFEAWAGEDYWGPGTQVTVSS = low polyreactivity
• QVQLVESGGGLVQAGGSLRLSCAASGSILGYYAMGWYRQAPGKERELVAAITASGGSTYYADSVKGRFTISRDNAKNTVYLQMNSLKPEDTAVYYCAAQYYATYGYWGQGTQVTVSS = low polyreactivity
• QVQLVESGGGLVQAGGSLRLSCAASGSTLYDYTMGWYRQAPGKERELVAAIRVSGARTFYADSVKGRFTISRDNAKNTVYLQMNSLKPEDTAVYYCAARWYIANPLSPSDYWGQGTQVTVSS = low polyreactivity
• QVQHVESGGGLVQAGGSLRLSCAASGSTFKFYTMGWYRQAPGKERELVAGSTRAGSTNYADSVKGRFTISRDNAKNTVYLQMNSLKPEDTAVYYCNAYIWIYGCDYWGQGTQVTVSS = high polyreactivity
• QVQLVESGGGLVQAGGSLRLSCAASGRIVYLNAMGWYRQPPGKERELVAAINTSGDSTYYADSVKGRFTISRDNAKNTVYLQMNSLKPVDTAVYYCAAYVIGPDQFIYDYWGQGTQVTVSS = low polyreactivity
• QVHLEESGGGLVQAGGSLRLSCAASGRTFRHNAMGWYRQAPGKERELVAAISSSGTNTHYADSVKGRFTISRDNAKNTVYLQMNSLKPEDTAVYYCAADRWGARRKQYHENGYWGQGTQVTVSS = high polyreactivity
